Assay: recombinant barcode read abundance after kanamycin selection (control-corrected) (log10(CPM+1)); higher = more efficient recombination; sequences stand for … in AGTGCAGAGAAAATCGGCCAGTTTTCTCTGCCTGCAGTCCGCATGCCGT…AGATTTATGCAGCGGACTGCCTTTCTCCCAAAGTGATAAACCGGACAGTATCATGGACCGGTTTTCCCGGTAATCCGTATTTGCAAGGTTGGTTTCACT; site = the 11-nt target;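 note: IS621 recombinase and bridge RNA in Escherichia coli cells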
measured-property: recombinant barcode read abundance (log10)
Number, no unit, nothing else.

Example sequences with recorded recombinant barcode read abundance (log10):
# chain-sequence, readout-number
measured = [
    ("AGGTCCTCTTGGGTTCTAACCTGTTGCTA (site AGGTCCTCTTA)", 1.96),
    ("ATGTCCTCTTGGGTTCTAACCTGTTGCCT (site ATGCCCTCTAG)", 0.872),
    ("TTGAAGCCTTGGGTTCTAACCTGTTGCCT (site GTGAAGCCTAG)", 0.0341),
]

Now turn to the next sequence.
Requested field: recombinant barcode read abundance (log10). Item: CTTTAATCTTGGGTTCTAACCTGTTGCCT (site CTTCAATCTAG)
0.158
